# Organism: Homo sapiens
# assay text: Selectivity for human retinal cone PDE-6 and human corpus cavernosum PDE-5
Ratio for assorted compounds
Note: the reply should be a number with no unit written.

INSERT INTO measurements (compound, endpoint_name, recorded_measurement) VALUES
  ('Oc1c2c(nc3ccccc13)C(c1ccc3c(c1)CCO3)N(c1ncccn1)C2 (stereo not drawn)', 'Ratio', 310),
  ('COc1ccc(-c2cnc(N3Cc4c(nc5ccccc5c4O)C3c3ccc4c(c3)OCCO4)nc2)cc1 (stereo not drawn)', 'Ratio', 3.07),
  ('COc1ccc(-c2cnc(N3Cc4c(nc5ccccc5c4O)[C@H]3c3ccc4c(c3)OCO4)nc2)cc1OC', 'Ratio', 0.59),
  ('COc1ccc(-c2cnc(N3Cc4c(nc5ccccc5c4O)C3c3ccc4c(c3)OCO4)nc2)cc1 (stereo not drawn)', 'Ratio', 18.5),
  ('COc1ccc(-c2cnc(N3Cc4c(nc5ccccc5c4O)C3c3ccc4c(c3)CCO4)nc2)cc1 (stereo not drawn)', 'Ratio', 55.9),
  ('COc1ccc(-c2cnc(N3Cc4c(nc5ccccc5c4O)C3c3ccc4c(c3)CCC4)nc2)cc1OC (stereo not drawn)', 'Ratio', 2.14),
  ('Oc1c2c(nc3ccccc13)C(c1ccc3c(c1)OCO3)N(c1ncccn1)C2 (stereo not drawn)', 'Ratio', 7.4);

# evaluate next
What Ratio value was documented for this compound, COc1ccc(-c2cnc(N3Cc4c(nc5ccccc5c4O)[C@H]3c3ccc4c(c3)CCO4)nc2)cc1 ?
27

* * *

# assay text: pKa of the compound
# Assay type: physicochemical
endpoint name: pKa
Give only the figure.

Field request: pKa | item: COc1ccc(-c2cnc(N3Cc4c(nc5ccccc5c4O)[C@H]3c3ccc4c(c3)OCO4)nc2)cc1OC
9

* * *

# target or test system: cGMP-specific 3',5'-cyclic phosphodiesterase (Homo sapiens)
# assay text: Phosphodiesterase 5 activity of human corpus cavernosum
endpoint name: pKi
pKi here is simply -log10 of the concentration when that concentration is written in mol/L.

// worked examples, pKi included
INSERT INTO measurements (compound, endpoint_name, recorded_measurement) VALUES
  ('Oc1ccc(-c2cnc(N3Cc4c(nc5ccccc5c4O)C3c3ccc4c(c3)CCO4)nc2)cc1 (stereo not drawn)', 'pKi', 8.76),
  ('COc1ccc(-c2cnc(N3CC(=O)c4c([nH]c5ccccc45)C3c3ccc4c(c3)OCO4)nc2)cc1OC (stereo not drawn)', 'pKi', 8.05),
  ('Oc1c2c(nc3ccccc13)C(c1ccc3c(c1)CCO3)N(c1ncc(-c3ccc(OCCN4CCOCC4)cc3)cn1)C2 (stereo not drawn)', 'pKi', 9.54),
  ('Oc1c2c(nc3ccccc13)C(c1ccc3c(c1)OCO3)N(c1ncccn1)C2 (stereo not drawn)', 'pKi', 8.92),
  ('COc1ccc(-c2cnc(N3Cc4c(nc5ccccc5c4O)C3c3ccc(OC)c(OC)c3)nc2)cc1OC (stereo not drawn)', 'pKi', 7.61),
  ('COc1ccc(-c2cnc(N3Cc4c(nc5ccccc5c4O)C3c3ccc4c(c3)OCCO4)nc2)cc1 (stereo not drawn)', 'pKi', 9.28),
  ('COc1ccc(-c2cnc(N3Cc4c(nc5ccccc5c4O)C3c3ccc4c(c3)OCO4)nc2)cc1 (stereo not drawn)', 'pKi', 9.51);

Now consider the entry below.
Lookup: pKi / cGMP-specific 3',5'-cyclic phosphodiesterase (Homo sapiens) / CCN(CC)CCOc1ccc(-c2cnc(N3Cc4c(nc5ccccc5c4O)C3c3ccc4c(c3)CCO4)nc2)cc1 (stereo not drawn)
9.28
